Data origin, for the record: ChEMBL document CHEMBL1145880

Property: Stimulation; scope: individual compounds
# system under test: Melanocortin receptor 4 (Homo sapiens, UniProt P32245)
# Sequence (P32245 whole entry): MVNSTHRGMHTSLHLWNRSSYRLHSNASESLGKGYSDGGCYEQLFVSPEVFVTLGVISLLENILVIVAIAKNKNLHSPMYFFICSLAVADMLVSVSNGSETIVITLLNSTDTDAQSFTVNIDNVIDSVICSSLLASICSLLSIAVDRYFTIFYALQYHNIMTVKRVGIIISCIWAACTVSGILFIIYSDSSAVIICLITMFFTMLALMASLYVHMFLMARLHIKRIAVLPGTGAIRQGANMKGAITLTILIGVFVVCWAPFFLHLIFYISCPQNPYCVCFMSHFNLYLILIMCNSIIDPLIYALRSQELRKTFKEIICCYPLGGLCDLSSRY
# test protocol: cAMP accumulation in HEK cells transfected with human melanocortin 4 receptor (hMC4R) with respect to alpha-MSH
# Format: functional, cell-based
# condition details: HEK293
assay endpoint: Stimulation

| compound | assay endpoint | value reported |
| --- | --- | --- |
| COC(=O)C(=O)Nc1ccccc1N1CCN(C(=O)[C@@H](Cc2ccc(Cl)cc2)NC(=O)[C@H]2Cc3ccccc3CN2)CC1 | Stimulation | 55% |
| O=C(N[C@H](Cc1ccc(Cl)cc1)C(=O)N1CCN(c2ccc(C(F)(F)F)cc2Cn2cncn2)CC1)[C@H]1Cc2ccccc2CN1 | Stimulation | 100% |
| CC(C)S(=O)(=O)Nc1ccccc1N1CCN(C(=O)[C@@H](Cc2ccc(Cl)cc2)NC(=O)[C@H]2Cc3ccccc3CN2)CC1 | Stimulation | 85% |
| O=C(Nc1ccccc1N1CCN(C(=O)[C@@H](Cc2ccc(Cl)cc2)NC(=O)[C@H]2Cc3ccccc3CN2)CC1)c1cccnc1 | Stimulation | 83% |
| CCOC(=O)CNC(=O)Nc1ccccc1N1CCN(C(=O)[C@@H](Cc2ccc(Cl)cc2)NC(=O)[C@H]2Cc3ccccc3CN2)CC1 | Stimulation | 68% |
| CS(=O)(=O)N1CC2(CCN(C(=O)[C@@H](Cc3ccc(Cl)cc3)NC(=O)[C@H]3Cc4ccccc4CN3)CC2)c2ccccc21 | Stimulation | 100% |
| CCC(C)N(Cc1ccccc1N1CCN(C(=O)[C@@H](Cc2ccc(Cl)cc2)NC(=O)[C@H]2Cc3ccccc3CN2)CC1)S(C)(=O)=O (some centres not stated) | Stimulation | 100% |

###

Property: EC50; scope: individual molecules
# system under test: UniProt P32245
# test protocol: Agonistic activity measured as […] cAMP accumulation in HEK cells expressing human Melanocortin 4 receptor (hMC4R)
assay endpoint: EC50 (nM)

| smiles string | unit abbreviation | value reported |
| --- | --- | --- |
| CS(=O)(=O)Nc1ccccc1N1CCN(C(=O)[C@@H](Cc2ccc(Cl)cc2)NC(=O)[C@H]2Cc3ccccc3CN2)CC1 | nM | 380 |
| CC(=O)Nc1ccccc1N1CCN(C(=O)[C@@H](Cc2ccc(Cl)cc2)NC(=O)[C@H]2Cc3ccccc3CN2)CC1 | nM | 1900 |
| O=C(N[C@H](Cc1ccc(Cl)cc1)C(=O)N1CCN(c2ccc(C(F)(F)F)cc2Cn2cncn2)CC1)[C@H]1Cc2ccccc2CN1 | nM | 680 |
| O=C(N[C@H](Cc1ccc(Cl)cc1)C(=O)N1CCN(c2ccccc2NS(=O)(=O)C(F)(F)F)CC1)[C@H]1Cc2ccccc2CN1 | nM | 4400 |
| CN(c1ccccc1N1CCN(C(=O)[C@@H](Cc2ccc(Cl)cc2)NC(=O)[C@H]2Cc3ccccc3CN2)CC1)S(C)(=O)=O | nM | 520 |
| CCN(Cc1ccccc1N1CCN(C(=O)[C@@H](Cc2ccc(Cl)cc2)NC(=O)[C@H]2Cc3ccccc3CN2)CC1)S(C)(=O)=O | nM | 690 |
| CCOC(=O)NC(=O)Nc1ccccc1N1CCN(C(=O)[C@@H](Cc2ccc(Cl)cc2)NC(=O)[C@H]2Cc3ccccc3CN2)CC1 | nM | 650 |
| COc1ccc(Cn2cncn2)c(N2CCN(C(=O)[C@@H](Cc3ccc(Cl)cc3)NC(=O)[C@H]3Cc4ccccc4CN3)CC2)c1 | nM | 110 |
| CCOC(=O)CNC(=O)Nc1ccccc1N1CCN(C(=O)[C@@H](Cc2ccc(Cl)cc2)NC(=O)[C@H]2Cc3ccccc3CN2)CC1 | nM | 2100 |
